Hey, just so you know, these numbers are from patent US20100041760A1.

The following compounds are listed with their measured pIC50 values.
studyTarget: thromboxane A2 receptor (TP) (Homo sapiens)
Construct: using human platelets as the source of the receptor
Sequence (P21731 whole entry): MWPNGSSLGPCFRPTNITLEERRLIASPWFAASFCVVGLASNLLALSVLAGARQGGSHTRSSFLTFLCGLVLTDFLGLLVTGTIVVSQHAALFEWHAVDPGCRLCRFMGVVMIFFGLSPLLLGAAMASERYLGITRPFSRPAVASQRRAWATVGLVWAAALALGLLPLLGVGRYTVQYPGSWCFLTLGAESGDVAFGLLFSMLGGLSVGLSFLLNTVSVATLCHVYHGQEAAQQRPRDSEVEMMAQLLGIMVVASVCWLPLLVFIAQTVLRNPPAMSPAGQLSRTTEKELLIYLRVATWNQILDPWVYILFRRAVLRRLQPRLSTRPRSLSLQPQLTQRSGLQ
assayMethodText: Human Thromboxane A2 Receptor Binding Assay
cond: human platelets; 10 nM [3H]SQ29548; 1 hour, room temperature
Procedure: The thromboxane A2 receptor (TP) plays a key role in hemostasis as its abnormality leads to bleeding disorders. […] The TP binding reactions (0.2 mL) were performed in 96-well plates at room temperature in PBS containing 5×10^7 platelets, 10 mM MgCl2, 0.06% BSA, 10 nM [^3H]SQ29548, and the test compound at various concentrations. […] The radioactivity bound to the platelets in the absence of compound (total binding) was determined by replacing the compound with 0.25% of DMSO in the reaction mixture. […]
pIC50: −log10 of the molar value.

Some compounds with known pIC50 results, for comparison:
| compound | studyTarget | pIC50 |
| --- | --- | --- |
| O=C(O)COc1cccc2c1CCC[C@H]2NS(=O)(=O)c1cc(F)cc(C(F)(F)F)c1 [Example 10-12] | thromboxane A2 receptor (TP) (Homo sapiens) | 6.47 |
| CC1(c2cc(C(F)(F)F)cc(S(=O)(=O)N[C@@H]3CCCc4c(OCC(=O)O)cccc43)c2)CC1 [Example 10-7] | thromboxane A2 receptor (TP) (Homo sapiens) | < 5.00 |
| O=C(O)COc1cccc2c1CCC[C@H]2NS(=O)(=O)c1cc(F)cc(F)c1 [Example 10-5] | thromboxane A2 receptor (TP) (Homo sapiens) | 5.62 |

Reported pIC50 for CC(C)c1cc(C(F)(F)F)cc(S(=O)(=O)N[C@@H]2CCCc3c(OCC(=O)O)cccc32)c1 [Example 10-6] was < 5.00

Reported pIC50 for CN([C@@H]1CCCc2c(OCC(=O)O)cccc21)S(=O)(=O)c1cc(N2CCCC2)cc(C(F)(F)F)c1 [Example 4-1] was < 5.00

Reported pIC50 for CN([C@@H]1CCCc2c(OCC(=O)O)cccc21)S(=O)(=O)c1cc(C(F)(F)F)cc(S(=O)(=O)C(C)(C)C)c1 [Example 3-3] was < 5.00

Reported pIC50 for CS(=O)(=O)c1cc(S(C)(=O)=O)cc(S(=O)(=O)N[C@@H]2CCCc3c(OCC(=O)O)cccc32)c1 [Example 10-9] was < 5.00
